Tested on: MOLT-4
Assay: NCI tumour cell line growth inhibition, 48 h
Active and inactive are the calls of the source. No stated cut-off is given here; in the data, active = GI50 up to about 1.1 µM and inactive = higher.
Possible outcomes: active, inactive

• COc1cccc(N2C(=O)C3C4C=C5c6ccccc6N(c6ccccc6)C5(C3C2=O)[C@H]2C(=O)N(c3cccc(OC)c3)C(=O)[C@@H]42)c1 (stereo not given in full) = inactive
• CN1C(=O)C23CCCCC2CC1(c1ccccc1)S3 (stereo not given) = inactive
• COC(=O)C(/C(=N/N)C(=O)Nc1cc(Cl)c(Cl)cc1Cl)c1nc2ccc(Cl)cc2nc1O (stereo not given) = active
• CN(C)C(C1=C(O)C(c2ccccc2)N(c2ccccc2)C1=O)N1CCOCC1 (stereo not given) = inactive
• CCOCC(=O)N[C@H]1CCc2cc(OC)c(OC)c(OC)c2-c2ccc(SC)c(=O)cc21 = active

----------
System: HT-29
Assay: NCI tumour cell line growth inhibition, 48 h
Calls of active or inactive are those of the source. Cut-off read from the data, not from the text of the source: active = GI50 up to about 1.1 µM and inactive = higher. Non-standard residues stand in square brackets, D forms with d. Residues, ends and D or L forms follow the SMILES beside them. ξ: configuration not given here. *: point of attachment. NMeF = CN[C@@H](Cc1ccccc1)C(=O)O; NMeN = CN[C@@H](CC(N)=O)C(=O)O; NMeV = CN[C@H](C(=O)O)C(C)C; ξNMeV = CNC(C(=O)O)C(C)C; Boc = CC(C)(C)OC(=O)*; ξNMeA = CNC(C)C(=O)O; ξV = CC(C)C(N)C(=O)O
Property: GI50; scope: individual compounds
RECORDED_METRIC: GI50

• COc1cc2c(=O)cnoc2cc1O = > 100 µM (inactive)
• CCOc1ccc(/N=C/c2ccc3ccccc3n2)cc1 = > 100 µM (inactive)
• COC(=O)C(C)N(C)C(=O)[C@H](CC(N)=O)N(C)C(=O)[C@@H]1CCCN1C(=O)[C@H](C(C)C)N(C)C(=O)C(C(C)C)N(C)C(=O)[C@H](Cc1ccccc1)N(C)C(=O)C(NC(=O)OC(C)(C)C)C(C)C (some centres undefined) (Boc-[ξV][NMeF][ξNMeV][NMeV]P[NMeN][ξNMeA]-OMe) = 18.3 µM (inactive)
• COc1c(-c2ccc3c(c2)OCO3)oc2cc3c(c(OC)c2c1=O)OCO3 = 23.3 µM (inactive)
• O=C1/C(=C/c2cccnc2)C(n2cccc2)c2c(Br)sc(Br)c21 (centres undefined) = 2.79 µM (inactive)
• C/C=C/COc1cc(NC(=S)OC(C)C)ccc1Cl.C/C=C\COc1cc(NC(=S)OC(C)C)ccc1Cl = 15.3 µM (inactive)
• [N-]=[N+]=Nc1ccc(NCCCCCC(=O)ON2C(=O)CCC2=O)c([N+](=O)[O-])c1 = > 100 µM (inactive)
• CCOP(=O)(CCCC(O)CNc1cc(Cl)nc(N)n1)OCC (centres undefined) = > 100 µM (inactive)
• CC1=C(C)CC2(SC1)C(=O)c1ccccc1C2=O = > 100 µM (inactive)

----------
Test system: U-251
Test: NCI tumour cell line growth inhibition, 48 h
Active and inactive are the calls of the source. Cut-off read from the data, not from the text of the source: active = GI50 up to about 1.1 µM and inactive = higher.
Property: GI50; scope: individual compounds
RECORDED_METRIC: GI50

- CN(C)CCCOc1nc2c(c(=O)n(C)c(=O)n2C)n1C.SC1=NC=NC2=NC=NC12: 18.1 µM (inactive)
- N#Cc1c(O)c(C=O)c(=O)n2c1[nH]c1ccccc12: > 100 µM (inactive)
- CCCCC(=C=C1CCCCC1O)C1CCCN1C(=O)OC(C)(C)C (stereo not given): 15.9 µM (inactive)
- CCN(CC)C(=O)N[C@@H](Cc1ccccc1)C(=O)NC: > 100 µM (inactive)
- Nc1ccccc1S(=O)(=O)c1ccccc1: > 100 µM (inactive)
- CN(C)CCOc1ccc(-c2c(Oc3ccc(Cl)cc3)c(=O)oc3ccccc23)cc1: 3.64 µM (inactive)
- C[N+]1([O-])C2CCC1CC(OC(=O)C(CO)c1ccccc1)C2 (stereo not given): > 100 µM (inactive)
- COc1ccccc1-n1c(NN)nc2ccc(Br)cc2c1=O: 35.4 µM (inactive)
- Cn1nc(-c2ccccc2)c2c(/C=C/c3ccc(Cl)cc3)onc2c1=O: 33.7 µM (inactive)
- O=C(O)C1C2C=CC(O2)C1C(=O)NCc1ccccn1 (stereo not given): > 100 µM (inactive)
- CCc1ccccc1NC(=O)C(=O)C1C(=O)N(c2ccccc2)N=C1N (stereo not given): > 100 µM (inactive)
- N#CC(=S)Nc1ccc(Cl)c(Cl)c1: 23.2 µM (inactive)
- CCOC(=O)c1c(N)sc2c1C(C(=O)OCC)CC2 (stereo not given): 73.3 µM (inactive)
- CC(C(=O)NCCNC(=O)CCCC(=O)N(C)O)C(=O)NCCNC(=O)CCCC(=O)N(C)O: > 100 µM (inactive)
- C[C@@H]1OC(=O)C[C@H]2CC(=O)N(CCC3CN(S(=O)(=O)C(F)(F)F)c4ccc(Cc5ccc6c(c5)C(CCN5C[C@H]7[C@@H](CC(=O)O[C@H]7C)CC5=O)CN6S(=O)(=O)C(F)(F)F)cc43)C[C@@H]21 (stereo not given in full): > 100 µM (inactive)
- COc1cccc(N2C(=O)C3C4C=C5c6ccccc6N(c6ccccc6)C5(C3C2=O)[C@H]2C(=O)N(c3cccc(OC)c3)C(=O)[C@@H]42)c1 (stereo not given in full): > 100 µM (inactive)
- O=[N+]([O-])c1cccc2nccc(NCC(O)CO)c12 (stereo not given): 14.6 µM (inactive)
- Cn1nc(-c2ccccc2NC(=O)C(F)(F)F)c(=O)n(C)c1=S: 27 µM (inactive)
- CCOc1ccc(/N=C/c2ccc3ccccc3n2)cc1: > 100 µM (inactive)
- NC(=O)c1ccc(NS(=O)(=O)c2ccc(N)cc2)nc1: > 100 µM (inactive)

----------
System: Malme-3M
Assay: NCI tumour cell line growth inhibition, 48 h
Calls of active or inactive are those of the source. Rule as the data show it: active = GI50 up to about 1.1 µM and inactive = higher.
RECORDED_METRIC: GI50

- CCc1ccccc1NC(=O)C(=O)C1C(=O)N(c2ccccc2)N=C1N (centres undefined): > 100 µM (inactive)
- CC1=C(C)CC2(SC1)C(=O)c1ccccc1C2=O: > 100 µM (inactive)
- O=c1c(Cc2ccc(Cl)cc2)nnc2sc(-c3ccc(-c4ccc(Cl)cc4Cl)o3)nn12: > 100 µM (inactive)
- CC(CNCCCNCCNCCCNCO)[N+](=O)[O-] (centres undefined): 2.07 µM (inactive)
- COc1cc(C(C)O)c[n+](CCc2c[nH]c3ccccc23)c1 (centres undefined): > 100 µM (inactive)
- COC1OC(C)C(NC(=O)OCC(Cl)(Cl)Cl)C2OC(C)(C)OC12 (centres undefined): > 100 µM (inactive)
- CN(CCCN1CCCC1)CCCN(C)C(=O)Cc1ccc(Cl)c(Cl)c1: 18.3 µM (inactive)
- COc1ccc2ccccc2c1C1OC(=O)c2ccccc21 (centres undefined): > 100 µM (inactive)
- NC1=NN(c2ccccc2)C(=O)C1C(=O)C(=O)NC1C2CC3CC(C2)CC1C3 (centres undefined): > 100 µM (inactive)
- CC(=O)Nc1ccc(/C=C(\NC(=O)c2ccccc2)c2nc3ccc4c(c3[nH]2)C(=O)c2ccccc2C4=O)cc1: > 100 µM (inactive)
- COCCOCOc1ccc(OCOCCOC)c2c1C(=O)c1ccccc1C2=O: 41.5 µM (inactive)
- COc1ccc(N2C(=O)/C(=C\c3cccc(Oc4ccccc4)c3)SC2c2ccccc2)cc1 (centres undefined): 34.6 µM (inactive)
- CCSc1cc2c(cc1O)CC[C@@H]1[C@@H]2CC[C@]2(C)[C@@H](O)CC[C@@H]12: 11.2 µM (inactive)
- Nc1ncnc2nc(N3CCN(CCO)CC3)[nH]c12: > 100 µM (inactive)
- O=C(c1ccco1)N1CCN(C(=O)c2ccco2)C1=S: 6.07 µM (inactive)
- COC(=O)/C(=C/c1ccc(OC)cc1)c1cc(OC)c(OC)c(OC)c1: 1.2 µM (inactive)
- Cc1ccc(-n2c(C)nc3c2C(=O)c2ccccc2C3=O)cc1: 20.4 µM (inactive)
- Cn1nc(-c2ccccc2NC(=O)C(F)(F)F)c(=O)n(C)c1=S: 37.8 µM (inactive)
- C=CCC12CC(=O)C=C1CCC1(C2)OCCO1 (centres undefined): > 100 µM (inactive)

----------
System: SF-295
Test: NCI tumour cell line growth inhibition, 48 h
Calls of active or inactive are those of the source. Cut-off read from the data, not from the text of the source: active = GI50 up to about 1.1 µM and inactive = higher.
Possible outcomes: 1.0 for active, 0.0 for inactive

• CN1C/C(=C\c2ccc(Cl)cc2)C(=O)/C(=C/c2ccc(Cl)cc2)C1 = 1.0
• CN(C)/C=N\c1nncc2[nH]cnc12 = 0.0
• CS(=O)(=O)CC1=Nc2nnc(CCCCCCCc3nnc4n3C(=O)C(CS(C)(=O)=O)=N4)n2C1=O = 0.0
• Cc1ccc2c(c1)CC1(Cc3cc(C)ccc3C1=O)C2=O = 0.0
• COc1c(-c2ccc3c(c2)OCO3)oc2cc3c(c(OC)c2c1=O)OCO3 = 0.0
